target: T1, human IL-36R extracellular domain expressed with a C-terminal myc-myc-hexahistidine tag (hIL-36R-MMH) (human, UniProt Q9HB29 20-337); assay: SPR Biacore T200, mAb captured on anti-hFc, 25C, PBS-T pH 7.4 running buffer
T1 construct: also called Human IL-36R-MMH; REGN2105
T1 sequence (Q9HB29 other isoform, or with tags, fused parts or gaps limits assumed): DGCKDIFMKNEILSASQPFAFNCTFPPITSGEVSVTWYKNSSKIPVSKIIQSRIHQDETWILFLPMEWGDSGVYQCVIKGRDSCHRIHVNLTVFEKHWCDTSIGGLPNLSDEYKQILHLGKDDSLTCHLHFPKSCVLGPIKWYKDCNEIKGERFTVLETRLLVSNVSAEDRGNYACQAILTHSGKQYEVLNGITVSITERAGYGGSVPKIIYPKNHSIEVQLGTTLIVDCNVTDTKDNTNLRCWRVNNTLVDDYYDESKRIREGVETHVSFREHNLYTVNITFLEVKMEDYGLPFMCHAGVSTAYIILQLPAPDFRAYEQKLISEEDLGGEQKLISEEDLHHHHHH
t1/2 listing for selected binders.
MEASURE_NAME: t1/2 (min)

* H4H14757P (antibody, human IgG4 S228P, kappa, V domains shown, Fully human anti-IL-36R antibody) VH: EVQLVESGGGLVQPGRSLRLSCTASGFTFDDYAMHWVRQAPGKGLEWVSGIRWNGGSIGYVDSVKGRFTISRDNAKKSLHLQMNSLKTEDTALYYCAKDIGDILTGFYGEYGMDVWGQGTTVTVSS VL: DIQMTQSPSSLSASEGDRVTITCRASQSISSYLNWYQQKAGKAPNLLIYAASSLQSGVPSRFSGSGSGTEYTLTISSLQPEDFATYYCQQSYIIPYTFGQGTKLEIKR | 19
* H4H14699P2 (antibody, human IgG4 S228P, kappa, V domains shown, Fully human anti-IL-36R antibody) VH: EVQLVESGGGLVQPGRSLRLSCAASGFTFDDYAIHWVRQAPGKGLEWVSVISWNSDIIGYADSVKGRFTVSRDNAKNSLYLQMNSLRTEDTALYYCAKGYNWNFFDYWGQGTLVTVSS VL: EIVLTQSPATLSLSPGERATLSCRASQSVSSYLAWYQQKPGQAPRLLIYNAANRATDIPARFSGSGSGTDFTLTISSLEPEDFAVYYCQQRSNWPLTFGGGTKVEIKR | 6
* H4H14709P (antibody, human IgG4 S228P, kappa, V domains shown, Fully human anti-IL-36R antibody) VH: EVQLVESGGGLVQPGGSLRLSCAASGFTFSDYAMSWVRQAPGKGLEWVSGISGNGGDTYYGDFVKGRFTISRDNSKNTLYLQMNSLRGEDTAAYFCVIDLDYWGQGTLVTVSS VL: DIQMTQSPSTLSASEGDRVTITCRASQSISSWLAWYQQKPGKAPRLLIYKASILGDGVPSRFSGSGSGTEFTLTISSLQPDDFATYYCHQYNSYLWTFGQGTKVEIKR | 28
